tested on: IL-4 stimulated CD23 upregulation in human Ramos B cells (JAK-1/JAK-3, Stat-6); experiment: Assay for Ramos B-Cell Line Stimulated with IL-4 (CD23 upregulation, FACS); format: cell-based; details: Table III Example 3
reported.property: IC50 (nM)
Numbers only, in nM.

item.smiles | system.under.test | observed.value
CC(C)S(=O)(=O)NCc1ccc(Nc2nc(Nc3cccc(S(N)(=O)=O)c3)ncc2F)cc1 | IL-4 stimulated CD23 upregulation in human Ramos B cells (JAK-1/JAK-3, Stat-6) | 69.4
CCOC(=NS(=O)(=O)c1cccc(Nc2ncc(C)c(Nc3cccc(CNS(=O)(=O)C4CC4)c3)n2)c1)OCC | IL-4 stimulated CD23 upregulation in human Ramos B cells (JAK-1/JAK-3, Stat-6) | 157
Cc1ccc(Nc2ncc(C)c(Nc3ccc(CNS(=O)(=O)CC(F)(F)F)cc3)n2)cc1S(N)(=O)=O | IL-4 stimulated CD23 upregulation in human Ramos B cells (JAK-1/JAK-3, Stat-6) | 25.3
NS(=O)(=O)c1ccc(Nc2ncc(F)c(Nc3ccc(CNS(=O)(=O)C4CC4)cc3)n2)cc1 | IL-4 stimulated CD23 upregulation in human Ramos B cells (JAK-1/JAK-3, Stat-6) | 126
Cc1cnc(Nc2ccc(S(=O)(=O)NCc3ccccc3)cc2)nc1Nc1ccc(CNS(=O)(=O)C2CC2)cc1 | IL-4 stimulated CD23 upregulation in human Ramos B cells (JAK-1/JAK-3, Stat-6) | 80
CCNS(=O)(=O)c1cc(Nc2ncc(C)c(Nc3ccc(CNS(=O)(=O)C4CC4)cc3)n2)ccc1C | IL-4 stimulated CD23 upregulation in human Ramos B cells (JAK-1/JAK-3, Stat-6) | 19.5
Cc1ccc(Nc2ncc(C)c(Nc3ccc(CNS(=O)(=O)C(C)C)cc3)n2)cc1S(N)(=O)=O | IL-4 stimulated CD23 upregulation in human Ramos B cells (JAK-1/JAK-3, Stat-6) | 38.8
Cc1ccc(Nc2ncc(F)c(Nc3ccc(CNS(=O)(=O)CS(C)(=O)=O)cc3)n2)cc1S(N)(=O)=O | IL-4 stimulated CD23 upregulation in human Ramos B cells (JAK-1/JAK-3, Stat-6) | 251
Cc1ccc(Nc2ncc(C)c(Nc3ccc4c(c3)CN(S(=O)(=O)C3CC3)C4)n2)cc1S(N)(=O)=O | IL-4 stimulated CD23 upregulation in human Ramos B cells (JAK-1/JAK-3, Stat-6) | 130
C#CCNS(=O)(=O)c1cc(Nc2ncc(C)c(Nc3cccc(CNS(=O)(=O)C4CC4)c3)n2)ccc1C | IL-4 stimulated CD23 upregulation in human Ramos B cells (JAK-1/JAK-3, Stat-6) | 162

Parameter requested: IC50. Apply to each item below.
1. Cc1nc(N)sc1S(=O)(=O)NCc1ccc(Nc2nc(Nc3cccc(S(N)(=O)=O)c3)ncc2F)cc1
2. NS(=O)(=O)c1cccc(Nc2ncc(F)c(Nc3ccc(CNS(=O)(=O)C4CCCCC4)cc3)n2)c1
3. CCC(=O)NS(=O)(=O)c1cccc(Nc2ncc(F)c(Nc3ccc(CN(C(=O)CC)S(=O)(=O)C4CC4)cc3)n2)c1
4. CC(C)S(=O)(=O)NCc1ccc(Nc2nc(Nc3ccc(S(N)(=O)=O)cc3)ncc2F)cc1
5. CCCN(Cc1ccc(Nc2nc(Nc3ccc(S(N)(=O)=O)cc3)ncc2F)cc1)S(=O)(=O)CC
6. CS(=O)(=O)CS(=O)(=O)NCc1ccc(Nc2nc(Nc3ccc(S(N)(=O)=O)cc3)ncc2F)cc1

Reply:
[1020, 56.9, 11100, 211, 164, 3100]

Dear reader, for each entry below, please note its IC50.
1. Cc1cnc(Nc2cccc(S(=O)(=O)NC(=O)CNC(=O)OC(C)(C)C)c2)nc1Nc1cccc(CNS(=O)(=O)C2CC2)c1
2. Cc1ccc(Nc2ncc(C)c(Nc3ccc(CNS(=O)(=O)C4CC4)cc3)n2)cc1S(=O)(=O)NC(C)C
3. CS(=O)(=O)CS(=O)(=O)NCc1ccc(Nc2nc(Nc3cccc(S(N)(=O)=O)c3)ncc2F)cc1
4. Cc1ccc(Nc2ncc(C)c(Nc3ccc(CNS(=O)(=O)C4CC4)cc3)n2)cc1S(N)(=O)=O
5. Cc1cnc(Nc2ccc(S(=O)(=O)NCC3CC3)cc2)nc1Nc1ccc(CNS(=O)(=O)C2CC2)cc1
6. CCC(=O)NS(=O)(=O)c1ccc(Nc2ncc(C)c(Nc3ccc(CNS(=O)(=O)C4CC4)cc3)n2)cc1
7. CNS(=O)(=O)c1cc(Nc2ncc(C)c(Nc3cccc(CNS(=O)(=O)C4CC4)c3)n2)ccc1C

Reply:
1: 3940; 2: 35.2; 3: 505; 4: 28; 5: 45.9; 6: 181; 7: 103
